The following molecules are listed with their measured TGI values.
Test system: NCI-H226 lung
Protocol: NCI tumour cell line growth inhibition, 48 h
Where a SMILES comes first, the peptide text is derived from it. [ ]: non-standard residue; d: D form.

- Molecule: "O=c1oc2cc(O)ccc2c(O)c1Cc1c(O)c2ccc(O)cc2oc1=O"
  Measured On: "NCI-H226 lung"
  Reported Value: "> 100 µM"

Briefly, TGI measured for CCCCCCCCCCCCCCCCCCOCC(O)COP(=O)(O)OCC1OC(n2ccc(N)nc2=O)C(O)C1O (centres undefined) : > 100 µM

TGI in this record for O=C1CC(NCc2ccccc2)c2c(Cl)sc(Cl)c21 (centres undefined) : > 63.5 µM

Quick note, TGI for C#CCNCCN1C(=O)c2ccc3c4c(ccc(c24)C1=O)C(=O)N(CCNCC#C)C3=O landed at 12.2 µM

Summary for this molecule, CC(C)CCNCC(O)Cn1c2ccccc2c2ccccc21 (centres undefined) : TGI is 37.9 µM

The molecule listed as CN(Cc1cnc2c(N)nc(N)nc2n1)c1ccc(Cl)cc1 shows TGI equal to 32.5 µM

Input O=C1CC(=O)NC(=NNS(=O)(=O)c2ccc(Cl)cc2)N1 . Output TGI: > 100 µM

The value of TGI measured for the molecule CC(C)C[C@H](NC(=O)[C@H](CC(C)C)NC(=O)[C@@H](Cc1c[nH]c2ccccc12)NC(=O)[C@H](Cc1ccccc1)NC(=O)[C@@H](Cc1c[nH]c2ccccc12)NC(=O)[C@H](CCC(N)=O)NC(=O)[C@H](CCC(N)=O)NC(=O)[C@H]1CCCN1C(=O)[C@@H](N)CCCCN)C(N)=O (H-K[dP]QQ[dW]F[dW]LL-NH2) turned out to be > 100 µM

Measured TGI, CCc1ccccc1NC(=O)/C(N=O)=C(/C)O : > 100 µM

# TGI (molecule: CC(=O)O[C@H]1CCC2[C@@H]3CCC4c5nonc5CC[C@]4(C)C3CC[C@@]21C (some centres undefined) ) is > 10 µM

Entry CC(C)(C)c1[nH]nc2c1C(c1cc3ccccc3[nH]c1=O)Nc1cc(C(=O)OCc3ccccc3)ccc1N2 (centres undefined) — recorded TGI = > 100 µM

So, Cc1[nH]c2ccc(F)cc2c1-c1nc2c3cccnc3c3ncccc3c2[nH]1 ? Its TGI was > 100 µM

Sure, the documented TGI for COc1ccc(-c2c(C#N)c(S)n(NS(=O)(=O)c3ccccc3)c(=O)c2C#N)cc1 is > 100 µM

TGI in this record for COc1ccc(CC2(Cc3ccc(OC)cc3)CCOC2=O)cc1 : > 100 µM

Nc1ccccc1C#C/C=C\C#Cc1cccc(O)c1 has a reported TGI of 20.9 µM

Looking up CCC[CH2][Sn]1([CH2]CCC)[O]C2C(CO)OC(n3ccc(N)nc3=O)C2[O]1 (centres undefined) , I found its TGI recorded as 4.25 µM

Looking up COc1ccc(C2=C(c3ccc(OC)c(OC)c3)C(=O)N3CCCC3C2)cc1 (centres undefined) , I found its TGI recorded as > 100 µM

// TGI value for COC(=N)c1c(N)[n+]([O-])c2ccc(F)cc2[n+]1[O-] : > 100 µM

Entry C[C@]12CC[C@@H]3c4ccc(O)cc4CC[C@H]3[C@@H]1Cc1cnc(N)nc12 ; TGI = 33.8 µM

---

System: SN12C renal
Protocol: NCI tumour cell line growth inhibition, 48 h
Value Type: GI50

Observe how each entry below is paired with its result.
- Input Smiles: "Cc1[nH]c(=O)nc(Nc2ccc(Cl)cc2)c1C(=O)N1CCN(CCO)CC1"
  GI50: "> 100 µM"
- Input Smiles: "CC[C@H](CO)Nc1nc(NCc2ccccc2)c2ncn(C(C)C)c2n1"
  GI50: "27 µM"

# GI50 of [O-]c1ccccc1/C=N/C(/N=C/c1ccccc1[O-])c1ccccc1O.[O-]c1ccccc1/C=N/C(/N=C/c1ccccc1[O-])c1ccccc1O.[Zr+4] = 57.3 µM

Value of GI50 reported for the molecule C=C1c2ccoc2C[C@H]2[C@H]1CC[C@@]1(O)[C@@](C)(C(=O)OC)CCC[C@]21C is 16.9 µM

---

Test system: MCF7 breast
Protocol: NCI tumour cell line growth inhibition, 48 h; in the data active = GI50 below about 0.43 µM; inactive = the rest
Pick from active, inactive when you respond.

Illustrative cases are given below, each with its answer.
- Input Smiles: "O=C1NOC(c2ccc(O)cc2)(c2ccc(O)cc2)c2ccccc21"
  Class Name: "inactive"
- Input Smiles: "Cc1cn2c(/C=C3/C(=O)Nc4ccc(O)cc43)c(C)nc2s1"
  Class Name: "inactive"
- Input Smiles: "Cn1cccc1-c1cc(-c2ccc(Br)cc2)[nH]c(=O)c1C#N"
  Class Name: "inactive"
- Input Smiles: "CN(C)c1ccc(C(=NO)c2ccc(N(C)C)cc2)cc1"
  Class Name: "inactive"
- Input Smiles: "CN(C)C(=O)c1cnc2oc3ccc(O)cc3c2c1-c1ccccc1"
  Class Name: "inactive"

Challenge: Just curious, what result did Cc1ccc(C(=O)NC2CCC2)cc1-c1ccc(C(=O)NCC2CC2)cc1 get here?
Response given: inactive

Challenge: Hi, do you know how COC(=O)Nc1nc2ccc(Oc3cccc(NC(=O)Nc4cc(C(F)(F)F)ccc4F)c3)cc2[nH]1 came out in this test?
Response given: inactive

Challenge: For this compound, state the assay outcome: N#CSCc1ccc(Cl)c(CSC#N)c1
Response given: active

Challenge: // return assay outcome for O=[N+]([O-])c1ccc(N=Nc2ccc(O)c3ccccc23)cc1
Response given: inactive

Challenge: Call for entry Cc1ccc(-c2nc3nc(-c4ccccc4)nc(N4CCNCC4)c3o2)cc1 :
Response given: active

Challenge: Write down the call the test reported for this compound. Item: COC(=O)c1cc2ccccc2c2c3c(ccc12)OCO3
Response given: inactive

---

System: UACC-62 melanoma
Protocol: NCI tumour cell line growth inhibition, 48 h
Value Type: TGI

# TGI of Cn1c(N)nc(-c2ccc(Cl)cc2)c1SSc1c(-c2ccc(Cl)cc2)nc(N)n1C = 5.03 µM

---

Reported TGI values are given for each entry in this list.
System: HCT-116 colon
Protocol: NCI tumour cell line growth inhibition, 48 h

# annotated cases, reported TGI shown
- Compound: "CC[C@H](CO)Nc1nc(NCc2ccccc2)c2ncn(C(C)C)c2n1"
  TGI: "> 100 µM"
- Compound: "CC(C)NC(=O)OCc1c2c(n(C)c1COC(=O)NC(C)C)-c1ccccc1CC2"
  TGI: "23.2 µM"
- Compound: "COc1cc2c(c(OC)c1OC)-c1ccc(SC)cc1C(O)CC2 (configuration not stated)"
  TGI: "> 100 µM"
- Compound: "Cc1nn(C)c(COc2ccc(N3CCN(S(=O)(=O)N(C)C)CC3)cc2)c1-c1cccc2c(CCCOc3cccc4ccccc34)c(C(=O)O)n(CCN3CCOCC3)c12"
  TGI: "15 µM"
- Compound: "CN(C)C(=O)c1cnc2oc3ccc(O)cc3c2c1-c1ccccc1"
  TGI: "> 25 µM"
- Compound: "Cc1cnc(CNC(=O)c2c(=O)c3ccc(N4CCCN(C)CC4)nc3n3c2sc2ccccc23)cn1"
  TGI: "2.76 µM"
- Compound: "CCOC(=O)c1nnc2c(C#N)c(-c3ccccc3)c(C)n2c1N"
  TGI: "> 100 µM"
- Compound: "O=C1/C(=N\\O)S(=O)(=O)c2ccccc21"
  TGI: "> 100 µM"
- Compound: "COc1ccc(C2=CC(c3ccc(OC)cc3Br)N3C=CSC3=N2)cc1 (configuration not stated)"
  TGI: "3.17 µM"
- Compound: "Cc1ccc(Nc2nc3c(=O)n(C)c(=O)n(C)c3nc2Nc2ccc(C)cc2)cc1"
  TGI: "22.1 µM"

Record Cn1c(N)nc(-c2ccc(Cl)cc2)c1SSc1c(-c2ccc(Cl)cc2)nc(N)n1C , field TGI: 13.4 µM

TGI for Cc1ccc2c(=O)c3ccccc3sc2c1 is > 100 µM

---

Tested on: UACC-62 melanoma
Protocol: NCI tumour cell line growth inhibition, 48 h
Each entry below lists one item and its recorded TGI value.
Unit µM implied. Number only.

Worked examples follow.
- Compound: "O=C(c1ccc(Cl)cc1)N(C(=S)OCCOc1ccccc1)c1ccccc1"
  Value Type: "TGI"
  Reported Value: 35.1
- Compound: "COc1ccc(/C=C(\\C(=O)NCc2cccnc2)S(=O)(=O)c2ccccc2)cc1OC"
  Value Type: "TGI"
  Reported Value: 3.74

In the following, a different compound is considered.
Case COc1ccccc1C1c2cc3c(cc2OC(N2CCOCC2)C1C)OCO3 (stereo unspecified) , UACC-62 melanoma, TGI recorded as 35.5

---

Test system: SK-MEL-5 melanoma
Protocol: NCI tumour cell line growth inhibition, 48 h
Value Type: TGI (µM)
Please reply with the bare figure in µM and do not write the unit itself.

Answered examples (3):
- Compound: "COc1cc(OC)c2[nH]c3c(O)c(-c4c(C)cc5c([nH]c6c(OC)cc(OC)cc65)c4O)c(C)cc3c2c1"
  Unit Name: "µM"
  TGI: 15.2
- Compound: "COc1cccc(-c2cc3c4c(nc5ccccc53)C(=O)c3cccnc3-c4n2)c1"
  Unit Name: "µM"
  TGI: 1.76
- Compound: "C[C@@H]1CC[C@@]2(OC1)O[C@H]1C[C@H]3[C@@H]4CC[C@H]5C[C@@H](OC6OC(CO)C(OC7OC(CO)C(O)C(OC8OCC(O)C(O)C8O)C7OC7OC(CO)C(O)C(O)C7O)C(O)C6O)[C@H](O)C[C@]5(C)[C@H]4CC[C@]3(C)[C@H]1[C@@H]2C (stereo partly drawn)"
  Unit Name: "µM"
  TGI: 45.8

For COC(=O)C1=C(C)NC(C)=C(C(=O)OCC(C)C)C1c1ccccc1[N+](=O)[O-] (stereo not drawn) the compound record lists TGI as 10.1

Reported TGI for Cn1cc(-c2csc(-c3cn(CCCN4CCCCC4)c4ccccc34)n2)c2cccnc21 was 3.26
